Where do the numbers come from? From paper PMC3418399.

Tested on: EL1/TM2 (CaCdr1p G547R)
test: MIC, liquid microdilution
Type: cell-based, Saccharomyces cerevisiae
conditions: Saccharomyces cerevisiae, 48 h, pH 7
Starred links: 1 amine or outer side, 2 acyl side, 3 side chain; linkers in the order of their positions; H or OH if unused. Positions of bridges follow the written chain, without caps; N, C: chain ends. Non-standard residues stand in square brackets, D forms with d. Residues, ends and D or L forms follow the SMILES beside them. *: point of attachment. hTyr(3S-OH,4S-OH,3'-OSO3H) = N[C@H](C(=O)O)[C@H](O)[C@@H](O)c1ccc(O)c(OS(=O)(=O)O)c1; Orn(4R-OH,5R-OH) = O=C([C@H](C[C@@H](O)[C@@H](O)N[*:3])N[*:1])[*:2]; Pro(3S-OH,4S-Me) = C[C@H]1CN[C@H](C(=O)O)[C@H]1O; X1 = CCCCCOc1ccc(-c2cc(-c3ccc(C(=O)*)cc3)no2)cc1; Gln(3R-OH) = NC(=O)C[C@@H](O)[C@H](N)C(=O)O; Hyp = O=C(O)[C@@H]1C[C@@H](O)CN1
endpoint-name: MIC
Please answer using the number first and the unit second.

The recorded MIC for C[C@@H](c1ncncc1F)[C@](O)(Cn1cncn1)c1ccc(F)cc1F [Voriconazole] is 2.5 µg/mL

The recorded MIC for entry CCCCCOc1ccc(-c2cc(-c3ccc(C(=O)N[C@H]4C[C@@H](O)[C@@H](O)NC(=O)[C@@H]5[C@@H](O)[C@@H](C)CN5C(=O)[C@H]([C@H](O)CC(N)=O)NC(=O)[C@H]([C@H](O)[C@@H](O)c5ccc(O)c(OS(=O)(=O)O)c5)NC(=O)[C@@H]5C[C@@H](O)CN5C(=O)[C@H]([C@@H](C)O)NC4=O)cc3)no2)cc1 [Micafungin] (X1-[Orn(4R-OH,5R-OH)]T[Hyp][hTyr(3S-OH,4S-OH,3'-OSO3H)][Gln(3R-OH)][Pro(3S-OH,4S-Me)]; lactam 1-C) equals 0.125 µg/mL

====

target-desc: Cdr1p ATPase (Candida albicans)
Sequence (P43071 whole entry): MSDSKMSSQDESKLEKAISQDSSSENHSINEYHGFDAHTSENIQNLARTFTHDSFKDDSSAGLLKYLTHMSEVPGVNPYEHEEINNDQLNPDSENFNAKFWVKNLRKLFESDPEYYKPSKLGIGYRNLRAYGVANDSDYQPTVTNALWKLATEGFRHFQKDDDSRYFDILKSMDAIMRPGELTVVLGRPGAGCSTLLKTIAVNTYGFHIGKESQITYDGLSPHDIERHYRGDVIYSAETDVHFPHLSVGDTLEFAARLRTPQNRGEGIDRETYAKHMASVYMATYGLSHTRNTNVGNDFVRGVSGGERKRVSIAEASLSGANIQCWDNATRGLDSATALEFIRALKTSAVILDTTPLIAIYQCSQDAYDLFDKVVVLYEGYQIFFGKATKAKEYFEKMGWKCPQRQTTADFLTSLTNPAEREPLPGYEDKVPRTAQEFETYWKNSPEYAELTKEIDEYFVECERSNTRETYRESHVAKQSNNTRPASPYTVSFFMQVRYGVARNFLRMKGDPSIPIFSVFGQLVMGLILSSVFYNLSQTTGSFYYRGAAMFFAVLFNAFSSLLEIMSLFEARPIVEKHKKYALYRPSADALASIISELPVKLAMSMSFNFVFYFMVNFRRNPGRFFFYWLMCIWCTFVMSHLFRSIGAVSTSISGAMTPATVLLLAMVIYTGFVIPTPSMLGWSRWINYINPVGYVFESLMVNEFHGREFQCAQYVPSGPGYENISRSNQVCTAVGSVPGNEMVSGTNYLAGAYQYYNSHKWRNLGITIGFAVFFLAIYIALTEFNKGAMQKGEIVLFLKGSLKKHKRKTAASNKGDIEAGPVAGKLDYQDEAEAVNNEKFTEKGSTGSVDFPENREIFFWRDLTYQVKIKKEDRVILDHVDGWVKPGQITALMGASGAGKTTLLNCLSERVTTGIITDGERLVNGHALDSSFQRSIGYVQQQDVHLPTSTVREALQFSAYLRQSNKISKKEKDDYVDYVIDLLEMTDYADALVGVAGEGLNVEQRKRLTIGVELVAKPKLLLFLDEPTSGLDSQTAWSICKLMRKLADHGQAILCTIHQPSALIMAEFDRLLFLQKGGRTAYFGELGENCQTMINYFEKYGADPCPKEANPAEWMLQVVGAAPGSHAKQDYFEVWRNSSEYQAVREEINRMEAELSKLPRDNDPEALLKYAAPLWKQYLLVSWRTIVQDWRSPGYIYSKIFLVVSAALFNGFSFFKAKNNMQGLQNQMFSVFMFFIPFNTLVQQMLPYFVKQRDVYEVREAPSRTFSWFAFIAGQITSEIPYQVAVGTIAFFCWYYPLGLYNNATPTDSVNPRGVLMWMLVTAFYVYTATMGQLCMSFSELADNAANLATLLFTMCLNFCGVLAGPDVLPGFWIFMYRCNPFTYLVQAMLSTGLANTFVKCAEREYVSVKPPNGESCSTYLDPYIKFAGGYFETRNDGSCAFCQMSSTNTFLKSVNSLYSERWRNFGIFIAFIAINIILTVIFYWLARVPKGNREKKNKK
test: CaCdr1p ATPase inhibition assay
Format: biochemical
conditions: read-out: IC50 Cdr1p ATPase; wild type CaCdr1p, oligomycin-sensitive ATPase, pH 7.5
endpoint-name: pIC50
# pIC50 = -log10(concentration in molar units)

Value of measured pIC50 for the entry D-NH2-FFKWQRRR-CONH2 : 5.70

Query D-NH2-FFKWQRRR-CONH2 + Mtr [RC21] yields pIC50 of 5.89

====

Tested on: EL1/TM2 (CaCdr1p G547R)
test: MIC, liquid microdilution
Assay type: cell-based, Saccharomyces cerevisiae
conditions: Saccharomyces cerevisiae, 48 h, pH 7
endpoint-name: MIC (µg/mL)
# unit: µg/mL | format: bare number

# MIC (molecule: Clc1ccc(COC(Cn2ccnc2)c2ccc(Cl)cc2Cl)c(Cl)c1 (centres unmarked) ) is 1

Recorded MIC (molecule C=CC[C@@H]1/C=C(\C)C[C@H](C)C[C@H](OC)[C@H]2O[C@@](O)(C(=O)C(=O)N3CCCC[C@H]3C(=O)O[C@H](/C(C)=C/[C@@H]3CC[C@@H](O)[C@H](OC)C3)[C@H](C)[C@@H](O)CC1=O)[C@H](C)C[C@@H]2OC ): 40

C[C@@H]1C[C@@H]([C@H](O)CC2CC(=O)NC(=O)C2)C(=O)[C@@H](C)C1 [Cycloheximide] has a reported MIC of 0.5

Lookup result for CC(=O)N1CCN(c2ccc(OCC3COC(Cn4ccnc4)(c4ccc(Cl)cc4Cl)O3)cc2)CC1 (centres unmarked) ; measured MIC: 1

// recorded MIC for OC(Cn1cncn1)(Cn1cncn1)c1ccc(F)cc1F : 100

====

Test system: EL1/TM2 (CaCdr1p G547R)
test: MIC, liquid microdilution
Type: cell-based, Saccharomyces cerevisiae
conditions: Saccharomyces cerevisiae, 48 h, pH 7
endpoint-name: MIC (µM)
Field: numeric (µM). Do not append units.

Form: compound = CN1CCN(CCCN2c3ccccc3Sc3ccc(C(F)(F)F)cc32)CC1 ; MIC = 40

Lab book: MIC of COC(=O)c1ccccc1-c1c2ccc(=N)cc-2oc2cc(N)ccc12 noted as 150

Reported MIC for CC/N=c1\cc2oc3cc(NCC)c(C)cc3c(-c3ccccc3C(=O)OCC)c-2cc1C was 50
